Tested on: SMN protein in SMA patient fibroblast cells (GM03813)
measurement-description: SMN protein assay in cultured cells (SMN HTRF)
Format: cell-based
condition-context: Homo sapiens, SMA Type 1 patient fibroblasts, 48 hours, fold increase relative to vehicle control, read-out: max. fold increase of SMN protein
Excerpt: The term “EC1.5x concentration for SMN protein expression” (or “EC1.5x SMN protein”) is defined as that concentration of test compound that is effective in producing 1.5 times the amount of SMN protein in an SMA patient fibroblast cell compared to the amount produced from the vehicle control. The SMN HTRF (homogeneous time resolved fluorescence) assay is used to quantify the level of SMN protein in SMA patient fibroblast cells treated with test compounds. […]
Catalogue of maximal fold induction readings, one per entry.
Reply with the value as a number alone.

Some solved cases for reference:
I'd like to know its maximal fold induction. The compound in question is Cc1cn2nc(-c3cc(=O)n4cc(N5CCN6CCC[C@H]6C5)ccc4n3)cc(C)c2n1
1.81

I'd like to know its maximal fold induction. The compound in question is Cc1cn2nc(-c3cc(=O)n4cc(N5CCNC6(CC6)C5)ccc4n3)cc(C)c2n1
1.72

I'd like to know its maximal fold induction. The compound in question is Cc1cn2nc(-c3cc(=O)n4cc(N5CCN6CCC[C@@]6(C)C5)ccc4n3)ccc2n1
1.83

I'd like to know its maximal fold induction. The compound in question is Cc1cn2nc(-c3cc(=O)n4cc(N5CCN[C@H](C)C5)cc(C)c4n3)ccc2n1
1.89

I'd like to know its maximal fold induction. The compound in question is Cc1cn2nc(-c3cc(=O)n4cc(N5CCN6CCC[C@@H]6C5)ccc4n3)cc(C)c2n1
1.76

From here, focus on the item given below.
I'd like to know its maximal fold induction. The compound in question is Cc1cn2nc(-c3cc(=O)n4cc(N5CC[C@@H](N6CCCC6)C5)ccc4n3)ccc2n1
1.54

====

Tested on: SMN protein in SMA patient fibroblast cells (GM03813)
measurement-description: SMN protein assay in cultured cells (SMN HTRF)
Type: cell-based
condition-context: Homo sapiens, SMA Type 1 patient fibroblasts, 48 hours, fold increase relative to vehicle control, read-out: max. fold increase of SMN protein
Catalogue of maximal fold induction readings, one per entry.
Reply with the value as a number alone.

Some solved cases for reference:
I'd like to know its maximal fold induction. The compound in question is Cc1cn2nc(-c3cc(=O)n4cc(N5CCN[C@H](C)C5)ccc4n3)cc(C)c2n1
1.92

I'd like to know its maximal fold induction. The compound in question is Cc1cn2nc(-c3cc(=O)n4cc(N5CCN[C@@H](C)C5)ccc4n3)ccc2n1
1.9

From here, focus on the item given below.
I'd like to know its maximal fold induction. The compound in question is Cc1cn2nc(-c3cc(=O)n4cc(N5CCN[C@@H](C)C5)ccc4n3)cc(C)c2n1
1.85

====

Catalogue of maximal fold induction readings, one per entry.
System: SMN protein in SMA patient fibroblast cells (GM03813)
measurement-description: SMN protein assay in cultured cells (SMN HTRF)
Assay type: cell-based
condition-context: Homo sapiens, SMA Type 1 patient fibroblasts, 48 hours, fold increase relative to vehicle control, read-out: max. fold increase of SMN protein
Text: The term “EC1.5x concentration for SMN protein expression” (or “EC1.5x SMN protein”) is defined as that concentration of test compound that is effective in producing 1.5 times the amount of SMN protein in an SMA patient fibroblast cell compared to the amount produced from the vehicle control. The SMN HTRF (homogeneous time resolved fluorescence) assay is used to quantify the level of SMN protein in SMA patient fibroblast cells treated with test compounds. […]
Reply with the value as a number alone.

Some solved cases for reference:
I'd like to know its maximal fold induction. The compound in question is Cc1cn2nc(-c3cc(=O)n4cc(N5CCN6CCC[C@]6(C)C5)ccc4n3)ccc2n1
1.98

I'd like to know its maximal fold induction. The compound in question is Cc1cn2nc(-c3cc(=O)n4cc(N5CCN6CCC[C@@H]6C5)ccc4n3)ccc2n1
1.76

I'd like to know its maximal fold induction. The compound in question is CC[C@@H]1CN(c2ccc3nc(-c4ccc5nc(C)cn5n4)cc(=O)n3c2)CCN1
1.81

I'd like to know its maximal fold induction. The compound in question is Cc1cn2nc(-c3cc(=O)n4cc(N5CCN[C@@H](C)C5)cc(C)c4n3)cc(C)c2n1
1.77

I'd like to know its maximal fold induction. The compound in question is Cc1cn2nc(-c3cc(=O)n4cc(N5CCNC(C)(C)C5)cc(C)c4n3)cc(C)c2n1
1.57

I'd like to know its maximal fold induction. The compound in question is Cc1cn2nc(-c3cc(=O)n4cc(N5CCCNCC5)ccc4n3)ccc2n1
1.91

I'd like to know its maximal fold induction. The compound in question is Cc1cn2nc(-c3cc(=O)n4cc(N5CCNC(C)(C)C5)ccc4n3)ccc2n1
1.63

New cases:
I'd like to know its maximal fold induction. The compound in question is Cc1cn2nc(-c3cc(=O)n4cc(N5CCNC(C)(C)C5)ccc4n3)cc(C)c2n1
1.69

====

Tested on: SMN protein in SMA patient fibroblast cells (GM03813)
measurement-description: SMN protein assay in cultured cells (SMN HTRF)
Format: cell-based
condition-context: Homo sapiens, SMA Type 1 patient fibroblasts, 48 hours, 7-point concentration curve, 1.5 times SMN protein vs vehicle, read-out: EC1.5x SMN protein (EC1.5x concentration for SMN protein expression)
Class key for EC (1.5-fold) values: low interval: < 0.02 µM; middle interval: ≥ 0.02 µM and < 0.04 µM; high interval: ≥ 0.04 µM

Which category fits this record: Cc1cn2nc(-c3cc(=O)n4cc(N5C[C@@H](C)N[C@@H](C)C5)ccc4n3)ccc2n1
low interval

New cases:
Which category fits this record: Cc1cn2nc(-c3cc(=O)n4cc(N5CCNC6(CC6)C5)ccc4n3)ccc2n1
middle interval

Which category fits this record: Cc1cn2nc(-c3cc(=O)n4cc(N5CCN6CCC[C@]6(C)C5)ccc4n3)cc(C)c2n1
low interval

Which category fits this record: Cc1cn2nc(-c3cc(=O)n4cc(N5CCCNCC5)ccc4n3)ccc2n1
low interval

Which category fits this record: Cc1cn2nc(-c3cc(=O)n4cc(N5CCN6CCC[C@@]6(C)C5)ccc4n3)cc(C)c2n1
low interval

Which category fits this record: Cc1cn2nc(-c3cc(=O)n4cc(N5CCNC6(CC6)C5)cc(C)c4n3)cc(C)c2n1
high interval

Which category fits this record: Cc1cn2nc(-c3cc(=O)n4cc(N5CCNC6(CC6)C5)cc(C)c4n3)ccc2n1
high interval

Which category fits this record: Cc1cn2nc(-c3cc(=O)n4cc(N5CC[C@@H](N6CCCC6)C5)ccc4n3)ccc2n1
high interval

Which category fits this record: Cc1cn2nc(-c3cc(=O)n4cc(N5C[C@@H](C)N[C@@H](C)C5)cc(C)c4n3)cc(C)c2n1
high interval

Which category fits this record: Cc1cn2nc(-c3cc(=O)n4cc(N5C[C@@H](C)N[C@@H](C)C5)ccc4n3)cc(C)c2n1
low interval

Which category fits this record: Cc1cn2nc(-c3cc(=O)n4cc(N5CCNC6(CC6)C5)ccc4n3)cc(C)c2n1
middle interval

Which category fits this record: Cc1cn2nc(-c3cc(=O)n4cc(N5CCN[C@H](C)C5)ccc4n3)ccc2n1
low interval

Which category fits this record: Cc1cn2nc(-c3cc(=O)n4cc(N5CCNC(C)(C)C5)cc(C)c4n3)cc(C)c2n1
high interval

Which category fits this record: Cc1cn2nc(-c3cc(=O)n4cc(N5CCN6CCC[C@@H]6C5)ccc4n3)cc(C)c2n1
low interval

Which category fits this record: Cc1cn2nc(-c3cc(=O)n4cc(N5CCN[C@H](C)C5)cc(C)c4n3)cc(C)c2n1
low interval

Which category fits this record: Cc1cn2nc(-c3cc(=O)n4cc(N5CC[C@H](N6CCCC6)C5)ccc4n3)ccc2n1
middle interval

====

Catalogue of EC (1.5-fold) readings, one per entry.
Tested on: SMN protein in SMA patient fibroblast cells (GM03813)
measurement-description: SMN protein assay in cultured cells (SMN HTRF)
Assay type: cell-based
condition-context: Homo sapiens, SMA Type 1 patient fibroblasts, 48 hours, 7-point concentration curve, 1.5 times SMN protein vs vehicle, read-out: EC1.5x SMN protein (EC1.5x concentration for SMN protein expression)
Use µM as the unit, but write only the number.

I'd like to know its EC (1.5-fold). The compound in question is Cc1cn2nc(-c3cc(=O)n4cc(N5CC[C@H](N6CCCC6)C5)ccc4n3)cc(C)c2n1 [Example 30]
0.0136

I'd like to know its EC (1.5-fold). The compound in question is Cc1cn2nc(-c3cc(=O)n4cc(N5CCN[C@@H](C)C5)ccc4n3)cc(C)c2n1 [Example 8]
0.0059

I'd like to know its EC (1.5-fold). The compound in question is Cc1cn2nc(-c3cc(=O)n4cc(N5CCN[C@@H](C)C5)cc(C)c4n3)cc(C)c2n1 [Example 24]
0.0047

New cases:
I'd like to know its EC (1.5-fold). The compound in question is Cc1cn2nc(-c3cc(=O)n4cc(N5CCN6CCC[C@@]6(C)C5)ccc4n3)ccc2n1 [Example 16]
0.003

These data points were gathered from patent US11827646B2.
